Test system: Surinam grass
Assay: Test B pre-/postemergence herbicide test
Assay type: in vivo, Urochloa decumbens
Conditions: 125 g ai/ha; 0 is no effect, 100 is complete control; preemergence
Assay Readout: Plant response rating (0 to 100 scale), Surinam Grass
I'd appreciate a reply containing only the number, no unit.

Consider the reported Plant response rating (0 to 100 scale), Surinam Grass for these compounds:
CCn1nc(C(C)(C)C)cc1C(=O)Nc1cccc(OS(=O)(=O)CC)c1 [Compound 408] = 30
CCN(CC)C(=O)c1cccc(NC(=O)c2cc(C(C)(C)C)nn2C)n1 [Compound 314] = 20
CCc1nn(C(C)C)nc1C(=O)Nc1cccc(C(=S)N(C)C)c1 [Compound 409] = 90
CCc1nn(C(C)C)nc1C(=O)Nc1cccc(C(=O)N2CCCCC2)c1 [Compound 385] = 80

Plant response rating (0 to 100 scale), Surinam Grass reported for this compound Cc1nn(C(C)(C)C)nc1C(=O)Nc1cccc(C(=S)N(C)C)c1 [Compound 419] : 90

Entry under test: Cn1nc(C(C)(C)C)cc1C(=O)Nc1cccc(C(=O)NC2CC2)n1 [Compound 315] . Its Plant response rating (0 to 100 scale), Surinam Grass was 0
